The measurements presented in this section are drawn from paper PMC9551276.

molecular target: hCB2R (Homo sapiens, UniProt P34972); experiment: DiscoveRx PathHunter βarrestin2 recruitment; format: cell-based; conditions: CHO-K1 hCB2R, 90 min; read-out: βarrestin2 recruitment EC50 (95% C.I.)
Sequence (P34972 whole entry): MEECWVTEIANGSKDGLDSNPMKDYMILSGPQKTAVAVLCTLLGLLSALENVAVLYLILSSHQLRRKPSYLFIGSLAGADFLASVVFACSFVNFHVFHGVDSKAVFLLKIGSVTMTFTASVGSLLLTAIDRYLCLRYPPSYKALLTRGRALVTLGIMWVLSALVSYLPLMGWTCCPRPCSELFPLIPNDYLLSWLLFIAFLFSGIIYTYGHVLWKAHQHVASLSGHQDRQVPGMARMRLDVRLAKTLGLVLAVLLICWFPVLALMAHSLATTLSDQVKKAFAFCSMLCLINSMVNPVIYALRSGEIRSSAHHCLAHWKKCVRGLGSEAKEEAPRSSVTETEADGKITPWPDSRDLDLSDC
Measured parameter: pEC50
Lab note — pEC50 values are minus log10 of concentrations in M.

Ask | Identify measured pEC50 corresponding to Cc1c(Br)cn(CCCc2cn(CCCCC(=O)NC3CCC(NC(=O)c4cc5cccnc5n(Cc5ccc(F)cc5)c4=O)CC3)nn2)c(=O)c1NC(=O)C1CCCCCC1 (centres unmarked) [JR14a]
Reply | 7.60

* * *

Field: IC50. Provide a value for each of the compounds that follow.
Field format: number, assumed nM, no unit text.

Ask | Return reported IC50 for target or system hCB2R (Homo sapiens, UniProt P34972), item Cc1c(Br)cn(CCCc2cn(CCCCC(=O)NC3CCC(NC(=O)c4cc5cccnc5n(Cc5ccc(F)cc5)c4=O)CC3)nn2)c(=O)c1NC(=O)C1CCCCCC1 (stereo not shown) [JR14a] .
Reply | 1.8

Ask | Look up and report measured IC50 (hCB2R (Homo sapiens, UniProt P34972)) for the following compound: CC1CCC(NC(=O)c2cc3cccnc3n(CCCCCO)c2=O)CC1 (stereo not shown) [LV62, reference compound]
Reply | 0.65

Ask | Lab note: hCB2R (Homo sapiens, UniProt P34972) assay, enter IC50 for Cc1c(Br)cn(CCCCCCCn2c(=O)c(C(=O)NC3CCC(C)CC3)cc3cccnc32)c(=O)c1NC(=O)C1CCCCCC1 (stereo not shown) [JR64a] here
Reply | 0.6

Ask | Provide IC50, recorded with hCB2R (Homo sapiens, UniProt P34972), of Cc1c(Br)cn(Cc2ccc(F)cc2)c(=O)c1NC(=O)C1CCCCCC1 [EC21a, reference compound]
Reply | 36
